# assay overview: Half-life by fluorescence method at 37 degrees C
# Format: ADME
property label: half-life (h)

INSERT INTO assay_data (line_notation, reported) VALUES
  ('C[C@H]1NC(=O)CC2([C@@](C)(O)C(=O)O)CC[C@@](C)(n3cnc4nc(N)nc(O)c43)[C@@H](S2)[C@@H](O)C(=O)/C=C/C=C\c2csc1n2', 2.2);

----------
# assay overview: Half-life by fluorescence method at 25 degrees C
# Assay type: ADME
property label: half-life (h)

INSERT INTO assay_data (line_notation, property_label, reported) VALUES
  ('C[C@H]1NC(=O)CC2([C@@](C)(O)C(=O)O)CC[C@@](C)(n3cnc4nc(N)nc(O)c43)[C@@H](S2)[C@@H](O)C(=O)/C=C/C=C\c2csc1n2', 'half-life', 11);

----------
# assay overview: Half-life by fluorescence method at 30 degrees C
# Assay type: ADME
property label: half-life

INSERT INTO results (line_notation, reported) VALUES
  ('C[C@H]1NC(=O)CC2([C@@](C)(O)C(=O)O)CC[C@@](C)(n3cnc4nc(N)nc(O)c43)[C@@H](S2)[C@@H](O)C(=O)/C=C/C=C\c2csc1n2', '4.6 h');
